Target: NLRP3 (Homo sapiens, UniProt Q96P20)
Construct: Seed THP-1 cells (5.56*10^5 cells/mL) containing 1.0 ug/mL LPS; endogenous in cells
Sequence (Q96P20 whole entry): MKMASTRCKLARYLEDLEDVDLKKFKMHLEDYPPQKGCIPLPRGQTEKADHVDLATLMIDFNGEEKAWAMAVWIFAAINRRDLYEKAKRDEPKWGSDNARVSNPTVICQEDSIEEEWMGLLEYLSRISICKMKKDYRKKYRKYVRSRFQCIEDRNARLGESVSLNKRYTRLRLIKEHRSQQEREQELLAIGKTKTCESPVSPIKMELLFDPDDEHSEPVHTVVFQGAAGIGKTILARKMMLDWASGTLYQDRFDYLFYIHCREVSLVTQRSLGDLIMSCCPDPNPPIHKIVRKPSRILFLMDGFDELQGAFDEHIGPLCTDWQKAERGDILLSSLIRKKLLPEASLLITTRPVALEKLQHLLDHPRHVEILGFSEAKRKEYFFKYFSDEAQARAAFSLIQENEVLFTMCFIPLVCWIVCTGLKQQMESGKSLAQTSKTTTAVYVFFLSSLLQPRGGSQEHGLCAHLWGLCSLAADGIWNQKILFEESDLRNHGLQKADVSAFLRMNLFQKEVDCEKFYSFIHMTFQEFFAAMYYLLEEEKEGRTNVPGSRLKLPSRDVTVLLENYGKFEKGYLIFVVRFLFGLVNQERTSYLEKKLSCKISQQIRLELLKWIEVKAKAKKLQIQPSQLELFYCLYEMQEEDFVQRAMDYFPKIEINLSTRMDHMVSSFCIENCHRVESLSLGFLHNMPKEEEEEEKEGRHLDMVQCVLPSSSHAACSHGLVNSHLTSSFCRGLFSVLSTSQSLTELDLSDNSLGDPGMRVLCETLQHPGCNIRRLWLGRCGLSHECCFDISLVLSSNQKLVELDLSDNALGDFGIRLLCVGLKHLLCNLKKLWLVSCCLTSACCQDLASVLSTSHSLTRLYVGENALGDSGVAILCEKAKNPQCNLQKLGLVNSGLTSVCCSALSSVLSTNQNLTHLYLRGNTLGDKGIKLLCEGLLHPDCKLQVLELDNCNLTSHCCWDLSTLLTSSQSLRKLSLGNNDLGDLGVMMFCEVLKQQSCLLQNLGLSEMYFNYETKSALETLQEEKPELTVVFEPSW
Assay: THP-1 cell assay (LPS priming, nigericin), IL1β release by HTRF; called pyroptosis assay, THP IC50
Conditions: NLRP3 inhibitory activity; THP-1 cells, 1.0 ug/mL LPS, compound 3 hrs, nigericin 5 uM 1 hr, IL1β in supernatant
reported-property: IC50

Would you please look over these solved cases?
What does the record list as IC50 for Cc1cc2c(c(NC(=O)NS(=O)(=O)c3cnn(CC4CC4)c3)c1-c1ccc3cncn3c1)CCC2 [Example 20] ?
30 to 300 nM

What does the record list as IC50 for Cc1cc2c(c(NC(=O)NS(=O)(=O)c3cc(C(C)(C)O)cs3)c1-c1ccn3cncc3c1)CCC2 [Example 69] ?
≤ 30 nM

What does the record list as IC50 for CC(C)(O)c1csc(S(=O)(=O)NC(=O)Nc2c(-c3ccn4ncnc4c3)ccc3c2CCC3)c1 [Example 53] ?
≤ 30 nM

Others:
What does the record list as IC50 for Cc1cc2c(c(NC(=O)NS(=O)(=O)c3ccn(C[C@@H]4CCO4)n3)c1-c1ccn3nccc3c1)CCC2 [Example 91] ?
≤ 30 nM
